The origin of these recorded values is ChEMBL document CHEMBL4411306.

Target: [Pyruvate dehydrogenase (acetyl-transferring)] kinase isozyme 2, mitochondrial (Homo sapiens, UniProt Q15119)
Assay: Inhibition of recombinant human His6-tagged N-terminal PDHK2 (A8 to T399 residues) expressed in baculovirus expression system using PDC as substrate incubated for 10 mins followed by ATP addition measured at 12 secs interval for 20 mins
MEASURED_ENDPOINT: pIC50
Numbers only, as −log10 of the molar value.

// pIC50 lookup, compound = "CC(C)c1ccc(COc2ccc(CC(=O)NCCN)cc2Cl)cc1" , result: 5.70

* * *

Experiment: Antiproliferative activity against human BEAS2B cells assessed as reduction in cell viability after 72 hrs by MTT assay
Format: cell-based
Settings: BEAS-2B cells, read-out: GC50
MEASURED_ENDPOINT: GI50 at 72 h

Below: 2 compounds and their reported GI50 at 72 h.
C[C@H]1CCc2c(sc3nc(SCCN4CCCC4)n(N)c(=O)c23)C1	> 20 µM
Cc1cccc(NC(=O)CSc2n[nH]c(-c3ccccc3O)n2)c1C	> 20 µM

Let us move to another entry and its GI50 at 72 h.
# GI50 at 72 h of "CC(C)CNS(=O)(=O)c1ccc(OCC(=O)N(Cc2ccccc2)Cc2ccccc2)cc1" = > 20 µM

* * *

For each record, write down the corresponding IC50.
Molecular target: UniProt:Q16654
Sequence (Q16654 whole entry): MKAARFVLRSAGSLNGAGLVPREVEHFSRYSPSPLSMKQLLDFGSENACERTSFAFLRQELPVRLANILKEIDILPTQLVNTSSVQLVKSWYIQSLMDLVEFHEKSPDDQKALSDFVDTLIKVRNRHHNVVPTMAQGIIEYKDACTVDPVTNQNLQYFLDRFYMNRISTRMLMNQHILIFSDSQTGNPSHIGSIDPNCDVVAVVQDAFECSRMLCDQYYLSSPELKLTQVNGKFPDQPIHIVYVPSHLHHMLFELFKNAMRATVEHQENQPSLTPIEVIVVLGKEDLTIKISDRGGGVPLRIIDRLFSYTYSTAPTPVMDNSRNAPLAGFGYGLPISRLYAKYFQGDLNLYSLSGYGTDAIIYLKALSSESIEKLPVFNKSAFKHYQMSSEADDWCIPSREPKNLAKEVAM
Assay: Inhibition of recombinant human His-tagged PDK4 expressed in Escherichia coli using PDH E1 as substrate measured after 30 mins by Kinase-Glo luminescence assay
One number for each entry, in µM.

Dear colleague, could you send me IC50 for each of the items below? Thanks.
1. CC(C)CNS(=O)(=O)c1ccc(OCC(=O)N(Cc2ccccc2)Cc2ccccc2)cc1
2. C[C@H]1CCc2c(sc3nc(SCCN4CCCC4)n(N)c(=O)c23)C1
3. Cc1cccc(NC(=O)CSc2n[nH]c(-c3ccccc3O)n2)c1C

output:
[6.9, 14.7, 2.5]

* * *

Exercise: for every item that follows, state its recorded IC50.
Molecular target: [Pyruvate dehydrogenase (acetyl-transferring)] kinase isozyme 1, mitochondrial (Homo sapiens)
Sequence (Q15118 whole entry): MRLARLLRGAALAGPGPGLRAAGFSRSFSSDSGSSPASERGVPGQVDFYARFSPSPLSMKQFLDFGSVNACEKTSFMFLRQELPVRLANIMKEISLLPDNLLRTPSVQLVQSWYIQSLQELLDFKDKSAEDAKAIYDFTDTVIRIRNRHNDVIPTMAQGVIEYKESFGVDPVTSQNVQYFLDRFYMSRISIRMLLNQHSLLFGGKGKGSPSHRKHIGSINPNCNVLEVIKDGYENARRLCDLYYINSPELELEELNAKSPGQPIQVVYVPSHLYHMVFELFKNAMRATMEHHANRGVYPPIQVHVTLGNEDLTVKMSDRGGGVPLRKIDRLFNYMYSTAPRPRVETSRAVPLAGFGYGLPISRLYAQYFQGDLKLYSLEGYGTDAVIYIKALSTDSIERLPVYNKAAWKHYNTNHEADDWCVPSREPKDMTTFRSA
Assay: Inhibition of recombinant human His-tagged PDK1 expressed in Escherichia coli using PDH E1 as substrate measured after 30 mins by Kinase-Glo luminescence assay

Cc1cccc(NC(=O)CSc2n[nH]c(-c3ccccc3O)n2)c1C	290 nM
CC(C)CNS(=O)(=O)c1ccc(OCC(=O)N(Cc2ccccc2)Cc2ccccc2)cc1	890 nM

Moving on to another molecule below.
Reported IC50 ( "C[C@H]1CCc2c(sc3nc(SCCN4CCCC4)n(N)c(=O)c23)C1" ) = 5900 nM

* * *

Assay: Permeability across human Caco2 cells by liquid scintillation counting method
Assay type: ADME, cell-based
Conditions: caco-2
Lab note - cut at 1 ×10⁻⁶ cm/s for Papp: Criterion met if strictly below, Criterion not met if not.

input: Papp under 1 ×10⁻⁶ cm/s? Item: "C[C@H]1CCc2c(sc3nc(SCCN4CCCC4)n(N)c(=O)c23)C1"
output: Criterion met

input: is_below(Papp, 1 ×10⁻⁶ cm/s) for "CC(C)CNS(=O)(=O)c1ccc(OCC(=O)N(Cc2ccccc2)Cc2ccccc2)cc1" ?
output: Criterion not met

* * *

Biological target: [Pyruvate dehydrogenase (acetyl-transferring)] kinase isozyme 2, mitochondrial (Homo sapiens, UniProt Q15119)
Assay: Inhibition of recombinant human His-tagged PDK2 expressed in Escherichia coli using PDH E1 as substrate measured after 30 mins by Kinase-Glo luminescence assay
Please provide measured IC50 for the entries that follow.
Numbers only, in µM.

Some compounds with known IC50 results, for comparison:
Cc1cccc(NC(=O)CSc2n[nH]c(-c3ccccc3O)n2)c1C	3.8
C[C@H]1CCc2c(sc3nc(SCCN4CCCC4)n(N)c(=O)c23)C1	10.5

The reported IC50 of the compound "CC(C)CNS(=O)(=O)c1ccc(OCC(=O)N(Cc2ccccc2)Cc2ccccc2)cc1" was 5.9
